# System: cloned human or rodent CNS receptors, channels, and transporters (PDSP panel)
# protocol-description: PDSP GPCR panel primary binding assays at 10 μM
# run-conditions: Alpha2A; primary assay, replicate 4
# Method: GPCR panel: Screening against the receptors within the PDSP panel offers an assessment of off-target pharmacological activity at cloned human or rodent CNS receptors, channels, and transporters that could confound CNS-related phenotypes. A total of 46–47 primary binding assays were run in quadruplicate on these compounds at 10 μM, with follow-up secondary binding assays in 11-point dose-response in triplicate for select compounds versus select receptors. […]
Could you please report measured Inhibition 4 for the items listed next?
Numbers only here, please. The scale is %.

The observed Inhibition 4 for O=C(NC1CC1)C(=O)C(Cc1ccccc1)NC(=O)[C@H]1CCC(=O)N1Cc1ccccc1 (stereo partly shown) [UNC10302676A, ABT-957 (Alicapistat)] when tested with cloned human or rodent CNS receptors, channels, and transporters (PDSP panel) stands at 17.86

The observed Inhibition 4 for CNc1nc(C)nc(N[C@H]2CCC[C@@H](C(=O)NCc3ccc(C#N)cc3C(F)(F)F)C2)n1 [UNC10302679A, GSK2256294A] when tested with cloned human or rodent CNS receptors, channels, and transporters (PDSP panel) stands at -2.95

The observed Inhibition 4 for CC(=O)N1CCC(NC(=O)NC23CC4CC(CC(C4)C2)C3)CC1 [UNC10302683A, AR9281] when tested with cloned human or rodent CNS receptors, channels, and transporters (PDSP panel) stands at -19.37

The observed Inhibition 4 for CCC(=O)N1CCC(NC(=O)Nc2ccc(OC(F)(F)F)cc2)CC1 [UNC10302681A, TPPU] when tested with cloned human or rodent CNS receptors, channels, and transporters (PDSP panel) stands at 2.19
